Tested on: 186277-243-T-J2-PDC spheroids with HUVEC/MSC, viability;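 note: compound exposure lasted seven days before readout; 100% = DMSO vehicle control wells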
Assay Text: Anticancer human tumor 186277-243-T-J2-PDC patient-derived colon adenocarcinoma cell line growth inhibition [CLK]; active = viability on the fitted dose curve at most 10% of control; inactive = the rest
Condition Details: second compound 10 µM; first compound 0.00949 µM
// classify into yes (1) (active), no (0) (inactive)

Query string: Hi team, can someone confirm the assay call for C=CC(=O)Nc1cc(Nc2nccc(-c3cn(C)c4ccccc34)n2)c(OC)cc1N(C)CCN(C)C + CNC(=O)c1ccc(Nc2nc(OC3CCCC3)c3c(-c4ccc5nc(C)oc5c4)c[nH]c3n2)c(OC)c1 ?
Result string: no (0)

Query string: Hi team, can someone confirm the assay call for NC(=O)C(=Cn1cnc(-c2cc(C(F)(F)F)cc(C(F)(F)F)c2)n1)c1cncnc1 + CNC(=O)c1ccc(Nc2nc(OC3CCCC3)c3c(-c4ccc5nc(C)oc5c4)c[nH]c3n2)c(OC)c1 ?
Result string: no (0)

Query string: Hi team, can someone confirm the assay call for C=CC(=O)Nc1cc(Nc2nccc(-c3cn(C)c4ccccc34)n2)c(OC)cc1N(C)CCN(C)C + CN1CCN(c2cc(C(=O)Nc3cc4cc(-c5cnn(C)c5)ccc4cn3)ccn2)CC1 ?
Result string: yes (1)
